Hey, just so you know, these numbers are from PubChem BioAssay (EPA / NIEHS).

experiment: LTEA_HepaRG_LDH_cytotoxicity: Cytotoxicity Assessment in the Life Technologies and Expression Analysis (LTEA) Assay (AID 2283563)
The source made the active and inactive calls. Rule for the calls: active = hit-call score of the fitted dose curve at least 0.9, where 1 is the maximum; inconclusive = response in the unintended direction; inactive = score below 0.9.
Your reply should match one of these outcome classes. 1 (active), 0 (inactive)

Any idea what this test logged for CN(C)NC(=O)CCC(=O)O ?
0

Any idea what this test logged for CCOP(=S)(OCC)Oc1cc(C)nc(C(C)C)n1 ?
0

Any idea what this test logged for O=C(O)c1cc(Oc2ccc(C(F)(F)F)cc2Cl)ccc1[N+](=O)[O-] ?
0

Any idea what this test logged for CC(Oc1cccc(Cl)c1)C(=O)O (stereo not drawn) ?
0

Any idea what this test logged for Cc1cc(C2CC2)nc(Nc2ccccc2)n1 ?
1

Any idea what this test logged for CCOP(=O)(NC(C)C)Oc1ccc(SC)c(C)c1 (stereo not drawn) ?
0

Any idea what this test logged for Nc1nc(N)nc(NC2CC2)n1 ?
0

Any idea what this test logged for CCC(=NOC/C=C/Cl)C1=C(O)CC(C2CCOCC2)CC1=O (stereo not drawn) ?
0

Any idea what this test logged for CCCCOC(=O)c1ccccc1C(=O)O ?
0

Any idea what this test logged for S=C1NCCN1 ?
0

Any idea what this test logged for CON=C(C(=O)OC)c1ccccc1CON=C(C)c1cccc(C(F)(F)F)c1 ?
0

Any idea what this test logged for CC(=NC#N)N(C)Cc1ccc(Cl)nc1 ?
0

Any idea what this test logged for CNc1cnn(-c2cccc(C(F)(F)F)c2)c(=O)c1Cl ?
0
